- Test system: NCC20
- assay.procedure: Cell viability drug screen, 12-point dose-response AUC
- Type: cell-based, human
- reported.conditions: NCC20 cells; 72 hours; 12-point dose-response
Where a name gives a salt, the structure may show the parent alone.
Listed below: area under the viability curve (AUC), normalized values for each entry.
Quick one: just the number, no unit, thanks!

// below: answered compounds
• Nc1ccc(-c2ccc3ncc4ccc(=O)n(-c5cccc(C(F)(F)F)c5)c4c3c2)cn1 [Torin, Torin 2] = −1.598
• C#Cc1cccc(Nc2ncnc3cc(OC)c(OCCCCCCC(=O)NO)cc23)c1 [CUDC-101] = −0.7885
• CCCOc1ccc2nc(NC(=O)OC)[nH]c2c1 [Oxybendazole] = −0.7466

Item under review: COc1ncc(-c2ccc3nccc(-c4ccnnc4)c3c2)cc1NS(=O)(=O)c1ccc(F)cc1F [GSK2126458] . Reported area under the viability curve (AUC), normalized?
−1.107

Item under review: O=C1c2c(O)ccc(O)c2C(=O)c2c(NCCNCCO)ccc(NCCNCCO)c21 [Mitoxantrone Hydrochloride] . Reported area under the viability curve (AUC), normalized?
−0.7422

Item under review: Cc1cnc(NC(=O)Nc2cc(Br)c(C)cc2OC[C@@H]2CNCCO2)cn1 [LY2603618] . Reported area under the viability curve (AUC), normalized?
0.01673

Item under review: C[C@@H]1O[C@@H](O[C@H]2C[C@@H](O)[C@]3(CO)[C@H]4[C@H](O)C[C@]5(C)[C@@H](C6=CC(=O)OC6)CC[C@]5(O)[C@@H]4CC[C@]3(O)C2)[C@H](O)[C@H](O)[C@H]1O [Oubain, Ouabain] . Reported area under the viability curve (AUC), normalized?
0.2365
